tested on: NCI-H23; test: Growth inhibition of human NCI-H23 cells assessed as cell growth at 10^-7 M incubated for 48 hrs by sulforhodamine B assay relative to control; type: functional; conditions: NCI-H23, 48 h, read-out: Activity
Measured growth at 0.1 µM values are reported for all entries that follow.

-- ask Entry C#C[C@@]1(O)[C@@H](CO)O[C@@H](n2cc(Br)c3c(N)ncnc32)[C@@H]1O has what growth at 0.1 µM?
-- reply 61 to 70%

-- ask What do you have for C#C[C@@]1(O)[C@@H](CO)O[C@@H](n2cc(Cl)c3c(N)ncnc32)[C@@H]1O ?
-- reply 69 to 73%

-- ask Here is the next compound: C#C[C@@]1(O)[C@@H](CO)O[C@@H](n2ccc3c(N)ncnc32)[C@@H]1O
-- reply 93%

-- ask Lookup C#C[C@@]1(O)[C@@H](CO)O[C@@H](n2cc(F)c3c(N)ncnc32)[C@@H]1O
-- reply 91%

New cases:
-- ask I would be grateful if you could share the reported growth at 0.1 µM for C#C[C@@]1(O)[C@@H](CO)O[C@@H](n2cc(I)c3c(N)ncnc32)[C@@H]1O .
-- reply 67 to 75%

Sourced from ChEMBL document CHEMBL4270599
